SYSTEM: UniProt:P37058
ASSAY COMMENT: Inhibition of 17β-HSD3 in intact HEK-293 cells
CONDITION CONTEXT: intact HEK-293 cells overexpressing 17β-HSD3, [14C]-Δ4-dione 50 nM
REPORTED PROPERTY: pIC50
// pIC50 is dimensionless: -log10 of concentration (M)

Req: Look at this molecule and give its reported pIC50. C[C@]12CCC(=O)C=C1CC[C@@H]1[C@@H]2CC[C@]2(C)C(=O)CC[C@@H]12 [Δ^4-dione, 4-androstene-3,17-dione, reference compound]
Resp: 6.47

###

SYSTEM: 17β-HSD3 (Homo sapiens, UniProt P37058)
Construct: expressed in transfected cells; host or cells: HEK-293 (homogenate)
Sequence (P37058 whole entry): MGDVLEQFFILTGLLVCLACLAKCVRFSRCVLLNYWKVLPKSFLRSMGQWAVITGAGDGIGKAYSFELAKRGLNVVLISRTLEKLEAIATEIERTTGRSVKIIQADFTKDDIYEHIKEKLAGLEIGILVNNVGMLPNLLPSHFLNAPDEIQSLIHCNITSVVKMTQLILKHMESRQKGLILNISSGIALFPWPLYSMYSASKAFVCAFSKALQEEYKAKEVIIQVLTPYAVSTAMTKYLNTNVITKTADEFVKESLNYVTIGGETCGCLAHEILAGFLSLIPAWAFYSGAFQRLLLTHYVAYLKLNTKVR
ASSAY COMMENT: Inhibition of 17β-HSD3 in homogenated HEK-293 cells
Format: biochemical
CONDITION CONTEXT: read-out: Homo (%) (0.1 μM), Table 4; 0.1 μM
Binary call on inhibition at 0.1 µM: T from 20% upward, F beneath that.

Field: example entries. Status: answers known.
COMPOUND | LABEL VALUE
C[C@]12CC[C@@]3(C[C@@H]1CC[C@@H]1[C@@H]2CC[C@]2(C)C(=O)CC[C@@H]12)CN(CCN1CCCCC1)C(=O)O3 [Compound 23c] | F
C[C@]12CC[C@@]3(C[C@@H]1CC[C@@H]1[C@@H]2CC[C@]2(C)C(=O)CC[C@@H]12)CN(Cc1ccc(C(F)(F)F)cc1)C(=O)O3 [Compound 17d] | T
CCN(CCN1C[C@]2(CC[C@@]3(C)[C@@H](CC[C@@H]4[C@@H]3CC[C@]3(C)C(=O)CC[C@@H]43)C2)OC1=O)C1CCCCC1 [Compound 23e] | T

Req: Is reported inhibition at 0.1 µM greater than or equal to 20% here: CCCN(CCC)CCN1C[C@]2(CC[C@@]3(C)[C@@H](CC[C@@H]4[C@@H]3CC[C@]3(C)C(=O)CC[C@@H]43)C2)OC1=O [Compound 23f]
Resp: F

Req: Is reported inhibition at 0.1 µM greater than or equal to 20% here: C[C@]12CC[C@@]3(C[C@@H]1CC[C@@H]1[C@@H]2CC[C@]2(C)C(=O)CC[C@@H]12)CN(C1CCCCC1)C(=O)O3 [Compound 17i]
Resp: T

Where do the numbers come from? From patent US11072632B2.
